Hello, the source for this data is patent US20060025342A1, in case you need it.

Molecular target: T1, canine renal PTH/PTHrP receptor (canine, UniProt Q9TU31 29-595)
T1 construct: whole, on cells; Native receptor in renal cortical membranes of adult mongrel dogs, not intact cells; also called canine renal receptors; receptor in canine renal cortical membranes (CRCM)
T1 sequence (looked up): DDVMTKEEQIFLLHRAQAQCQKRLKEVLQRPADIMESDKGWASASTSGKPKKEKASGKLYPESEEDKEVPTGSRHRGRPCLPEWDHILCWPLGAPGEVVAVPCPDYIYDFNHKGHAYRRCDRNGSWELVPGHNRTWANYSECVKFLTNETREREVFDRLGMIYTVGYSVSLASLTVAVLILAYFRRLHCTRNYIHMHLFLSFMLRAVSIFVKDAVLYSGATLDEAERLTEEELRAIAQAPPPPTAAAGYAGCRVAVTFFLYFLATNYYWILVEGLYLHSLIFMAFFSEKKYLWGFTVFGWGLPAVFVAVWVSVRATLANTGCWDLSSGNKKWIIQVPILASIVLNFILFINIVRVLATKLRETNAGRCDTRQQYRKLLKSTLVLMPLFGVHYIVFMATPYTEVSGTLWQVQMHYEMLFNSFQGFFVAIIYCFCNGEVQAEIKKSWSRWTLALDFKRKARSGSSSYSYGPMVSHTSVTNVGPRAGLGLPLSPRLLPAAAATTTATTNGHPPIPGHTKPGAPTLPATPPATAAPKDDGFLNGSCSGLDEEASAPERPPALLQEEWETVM
Experiment: competition of 125I-[Nle8,18,Tyr34]hPTH-(1-34)amide binding, canine renal cortical membranes, 20 C; Ki from IC50
property measured: pKi
Formally, pKi is defined as -log10 of the concentration c, with c in mol/L.

# pKi lookup, item AVSEIQFMHNLGKHLSSMERVEWLRKKLQDVHNF (peptide, UniProt P01268 32-65, looked up, range 1-34; Synthetic, Bachem; also called bPTH-(1-34); bovine (b)PTH-(1-34)) [bovine PTH-(1-34)] 8.21
